# ASSAY_METHOD_TEXT: Antibacterial activity against Clostridium difficile VIP 10463 ATCC 43255 by two fold serial dilution method
# Type: functional, Clostridium difficile ATCC 43255
# MEASUREMENT_PARAMETERS: Clostridioides difficile
Non-standard residues stand in square brackets, D forms with d. Residues, ends and D or L forms follow the SMILES beside them. ξ: configuration not given here. Ac6c = NC1(C(=O)O)CCCCC1; Ac5c = NC1(C(=O)O)CCCC1; ξDap = NCC(N)C(=O)O
VALUE_KIND: MIC (µM)
Respond with the bare value in µM.

Reference set (2 entries):
COMPOUND | MIC, µM
CC(=O)NCC(=O)N[C@@H](Cc1ccccc1)C(=O)NC1(C(=O)NCC(=O)NC2(C(=O)NC(CN)C(=O)NC3(C(=O)NCC(=O)NC4(C(=O)N[C@@H](Cc5ccccc5)C(=O)NC5(C(=O)NCC(=O)NC6(C(=O)NCC(=O)NC(CN)C(=O)NC7(C(=O)NC(CN)C(=O)NC(CN)C(=O)NC(CN)C(=O)NC(CN)C(N)=O)CCCCC7)CCCCC6)CCCCC5)CCCCC4)CCCCC3)CCCCC2)CCCCC1 (stereo partly drawn) (Ac-GF[Ac6c]G[Ac6c][ξDap][Ac6c]G[Ac6c]F[Ac6c]G[Ac6c]G[ξDap][Ac6c][ξDap][ξDap][ξDap][ξDap]-NH2) | 3.08
CC(=O)NCC(=O)N[C@@H](Cc1ccccc1)C(=O)NC1(C(=O)NCC(=O)NC2(C(=O)N[C@@H](CCCCN)C(=O)NC3(C(=O)NCC(=O)NC4(C(=O)N[C@@H](Cc5ccccc5)C(=O)NC5(C(=O)NCC(=O)NC6(C(=O)NCC(=O)N[C@@H](CCCCN)C(=O)NC7(C(=O)N[C@@H](CCCCN)C(=O)N[C@@H](CCCCN)C(=O)N[C@@H](CCCCN)C(=O)N[C@@H](CCCCN)C(N)=O)CCCC7)CCCCC6)CCCC5)CCCCC4)CCCC3)CCCCC2)CCCC1 (Ac-GF[Ac5c]G[Ac6c]K[Ac5c]G[Ac6c]F[Ac5c]G[Ac6c]GK[Ac5c]KKKK-NH2) | 1.4

Please turn your attention to the following entry.
In: Please give the measured MIC for this compound: CN[C@@H](CC(C)C)C(=O)N[C@H]1C(=O)N[C@@H](CC(N)=O)C(=O)N[C@H]2C(=O)N[C@H]3C(=O)N[C@H](C(=O)N[C@@H](C(=O)O)c4cc(O)cc(O)c4-c4cc3ccc4O)[C@H](O)c3ccc(c(Cl)c3)Oc3cc2cc(c3O[C@H]2O[C@@H](CO)[C@H](O)[C@@H](O)[C@@H]2O[C@@H]2C[C@@](C)(N)[C@@H](O)[C@@H](C)O2)Oc2ccc(cc2Cl)[C@H]1O
Out: 0.17

====

# ASSAY_METHOD_TEXT: Antiproliferative activity against human COLO205 cells after 72 hrs by Celltiter-Glo luminescent cell viability assay
# Type: functional, cell-based
# MEASUREMENT_PARAMETERS: COLO 205, 72 h
Non-standard residues stand in square brackets, D forms with d. Residues, ends and D or L forms follow the SMILES beside them. ξ: configuration not given here. Ac6c = NC1(C(=O)O)CCCCC1; ξOrn = NCCCC(N)C(=O)O
# IC50 per entry
# number only, unit µM dropped from output

COMPOUND | IC50 (µM)
CC(=O)N[C@@H](CCCCN)C(=O)N[C@@H](CCCCN)C(=O)N[C@@H](CCCCN)C(=O)N[C@@H](CCCCN)C(=O)NCC(=O)N[C@@H](Cc1ccccc1)C(=O)NC1(C(=O)NCC(=O)NC2(C(=O)N[C@@H](CCCCN)C(=O)NC3(C(=O)NCC(=O)NC4(C(=O)N[C@@H](Cc5ccccc5)C(=O)NC5(C(=O)NCC(=O)NC6(C(=O)NCC(=O)N[C@@H](CCCCN)C(=O)NC7(C(N)=O)CCCCC7)CCCCC6)CCCCC5)CCCCC4)CCCCC3)CCCCC2)CCCCC1 (Ac-KKKKGF[Ac6c]G[Ac6c]K[Ac6c]G[Ac6c]F[Ac6c]G[Ac6c]GK[Ac6c]-NH2) | 6.7

In: GET /values?readout=IC50&item= CC(=O)NCC(=O)N[C@@H](Cc1ccccc1)C(=O)NC1(C(=O)NCC(=O)NC2(C(=O)NC(CCCN)C(=O)NC3(C(=O)NCC(=O)NC4(C(=O)N[C@@H](Cc5ccccc5)C(=O)NC5(C(=O)NCC(=O)NC6(C(=O)NCC(=O)NC(CCCN)C(=O)NC7(C(=O)NC(CCCN)C(=O)NC(CCCN)C(=O)NC(CCCN)C(=O)NC(CCCN)C(N)=O)CCCCC7)CCCCC6)CCCCC5)CCCCC4)CCCCC3)CCCCC2)CCCCC1 (stereo not given in full) (Ac-GF[Ac6c]G[Ac6c][ξOrn][Ac6c]G[Ac6c]F[Ac6c]G[Ac6c]G[ξOrn][Ac6c][ξOrn][ξOrn][ξOrn][ξOrn]-NH2)
Out: 3.2

====

# ASSAY_METHOD_TEXT: Antiproliferative activity against human PC3 cells after 72 hrs by Celltiter-Glo luminescent cell viability assay
# Type: functional, cell-based
# MEASUREMENT_PARAMETERS: PC-3, 72 h
Non-standard residues stand in square brackets, D forms with d. Residues, ends and D or L forms follow the SMILES beside them. ξ: configuration not given here. Ac6c = NC1(C(=O)O)CCCCC1; Ac5c = NC1(C(=O)O)CCCC1; ξOrn = NCCCC(N)C(=O)O
List of IC50 values.

In: Look at this molecule and give its reported IC50. CC(=O)NCC(=O)N[C@@H](Cc1ccccc1)C(=O)NC1(C(=O)NCC(=O)NC2(C(=O)N[C@@H](CCCCN)C(=O)NC3(C(=O)NCC(=O)NC4(C(=O)N[C@@H](Cc5ccccc5)C(=O)NC5(C(=O)NCC(=O)NC6(C(=O)NCC(=O)N[C@@H](CCCCN)C(=O)NC7(C(=O)N[C@@H](CCCCN)C(=O)N[C@@H](CCCCN)C(=O)N[C@@H](CCCCN)C(=O)N[C@@H](CCCCN)C(N)=O)CCCC7)CCCC6)CCCC5)CCCC4)CCCC3)CCCC2)CCCC1 (Ac-GF[Ac5c]G[Ac5c]K[Ac5c]G[Ac5c]F[Ac5c]G[Ac5c]GK[Ac5c]KKKK-NH2)
Out: > 7.5 µM

In: CC(=O)NCC(=O)N[C@@H](Cc1ccccc1)C(=O)NC1(C(=O)NCC(=O)NC2(C(=O)NC(CCCN)C(=O)NC3(C(=O)NCC(=O)NC4(C(=O)N[C@@H](Cc5ccccc5)C(=O)NC5(C(=O)NCC(=O)NC6(C(=O)NCC(=O)NC(CCCN)C(=O)NC7(C(=O)NC(CCCN)C(=O)NC(CCCN)C(=O)NC(CCCN)C(=O)NC(CCCN)C(N)=O)CCCCC7)CCCCC6)CCCCC5)CCCCC4)CCCCC3)CCCCC2)CCCCC1 (stereo not given in full) (Ac-GF[Ac6c]G[Ac6c][ξOrn][Ac6c]G[Ac6c]F[Ac6c]G[Ac6c]G[ξOrn][Ac6c][ξOrn][ξOrn][ξOrn][ξOrn]-NH2) ?
Out: 7.5 µM

====

# Test system: Staphylococcus aureus
# ASSAY_METHOD_TEXT: Antibacterial activity against methicillin-resistant Staphylococcus aureus USA 300 NRS 384 by two fold serial dilution method
# Assay type: functional
Non-standard residues stand in square brackets, D forms with d. Residues, ends and D or L forms follow the SMILES beside them. ξ: configuration not given here. Ac6c = NC1(C(=O)O)CCCCC1; ξDab = NCCC(N)C(=O)O
We begin with a simple list: items and their reported MIC.
Give the number; µM is assumed, so skip it.

MOLECULE | TGT | UNIT_OF_MEASUREMENT | MIC
CC(=O)NCC(=O)N[C@@H](Cc1ccccc1)C(=O)NC1(C(=O)NCC(=O)NC2(C(=O)NC(CCN)C(=O)NC3(C(=O)NCC(=O)NC4(C(=O)N[C@@H](Cc5ccccc5)C(=O)NC5(C(=O)NCC(=O)NC6(C(=O)NCC(=O)NC(CCN)C(=O)NC7(C(=O)NC(CCN)C(=O)NC(CCN)C(=O)NC(CCN)C(=O)NC(CCN)C(N)=O)CCCCC7)CCCCC6)CCCCC5)CCCCC4)CCCCC3)CCCCC2)CCCCC1 (stereo partly drawn) (Ac-GF[Ac6c]G[Ac6c][ξDab][Ac6c]G[Ac6c]F[Ac6c]G[Ac6c]G[ξDab][Ac6c][ξDab][ξDab][ξDab][ξDab]-NH2) | Staphylococcus aureus | µM | 5.91

Now for the molecule whose MIC we want.
In: For CN[C@@H](CC(C)C)C(=O)N[C@H]1C(=O)N[C@@H](CC(N)=O)C(=O)N[C@H]2C(=O)N[C@H]3C(=O)N[C@H](C(=O)N[C@@H](C(=O)O)c4cc(O)cc(O)c4-c4cc3ccc4O)[C@H](O)c3ccc(c(Cl)c3)Oc3cc2cc(c3O[C@H]2O[C@@H](CO)[C@H](O)[C@@H](O)[C@@H]2O[C@@H]2C[C@@](C)(N)[C@@H](O)[C@@H](C)O2)Oc2ccc(cc2Cl)[C@H]1O , what is its reported MIC?
Out: 2.7
